Data origin, for the record: patent US8841450B2

target: ATR kinase (Homo sapiens (Human), UniProt Q13535)
Sequence (Q13535 whole entry): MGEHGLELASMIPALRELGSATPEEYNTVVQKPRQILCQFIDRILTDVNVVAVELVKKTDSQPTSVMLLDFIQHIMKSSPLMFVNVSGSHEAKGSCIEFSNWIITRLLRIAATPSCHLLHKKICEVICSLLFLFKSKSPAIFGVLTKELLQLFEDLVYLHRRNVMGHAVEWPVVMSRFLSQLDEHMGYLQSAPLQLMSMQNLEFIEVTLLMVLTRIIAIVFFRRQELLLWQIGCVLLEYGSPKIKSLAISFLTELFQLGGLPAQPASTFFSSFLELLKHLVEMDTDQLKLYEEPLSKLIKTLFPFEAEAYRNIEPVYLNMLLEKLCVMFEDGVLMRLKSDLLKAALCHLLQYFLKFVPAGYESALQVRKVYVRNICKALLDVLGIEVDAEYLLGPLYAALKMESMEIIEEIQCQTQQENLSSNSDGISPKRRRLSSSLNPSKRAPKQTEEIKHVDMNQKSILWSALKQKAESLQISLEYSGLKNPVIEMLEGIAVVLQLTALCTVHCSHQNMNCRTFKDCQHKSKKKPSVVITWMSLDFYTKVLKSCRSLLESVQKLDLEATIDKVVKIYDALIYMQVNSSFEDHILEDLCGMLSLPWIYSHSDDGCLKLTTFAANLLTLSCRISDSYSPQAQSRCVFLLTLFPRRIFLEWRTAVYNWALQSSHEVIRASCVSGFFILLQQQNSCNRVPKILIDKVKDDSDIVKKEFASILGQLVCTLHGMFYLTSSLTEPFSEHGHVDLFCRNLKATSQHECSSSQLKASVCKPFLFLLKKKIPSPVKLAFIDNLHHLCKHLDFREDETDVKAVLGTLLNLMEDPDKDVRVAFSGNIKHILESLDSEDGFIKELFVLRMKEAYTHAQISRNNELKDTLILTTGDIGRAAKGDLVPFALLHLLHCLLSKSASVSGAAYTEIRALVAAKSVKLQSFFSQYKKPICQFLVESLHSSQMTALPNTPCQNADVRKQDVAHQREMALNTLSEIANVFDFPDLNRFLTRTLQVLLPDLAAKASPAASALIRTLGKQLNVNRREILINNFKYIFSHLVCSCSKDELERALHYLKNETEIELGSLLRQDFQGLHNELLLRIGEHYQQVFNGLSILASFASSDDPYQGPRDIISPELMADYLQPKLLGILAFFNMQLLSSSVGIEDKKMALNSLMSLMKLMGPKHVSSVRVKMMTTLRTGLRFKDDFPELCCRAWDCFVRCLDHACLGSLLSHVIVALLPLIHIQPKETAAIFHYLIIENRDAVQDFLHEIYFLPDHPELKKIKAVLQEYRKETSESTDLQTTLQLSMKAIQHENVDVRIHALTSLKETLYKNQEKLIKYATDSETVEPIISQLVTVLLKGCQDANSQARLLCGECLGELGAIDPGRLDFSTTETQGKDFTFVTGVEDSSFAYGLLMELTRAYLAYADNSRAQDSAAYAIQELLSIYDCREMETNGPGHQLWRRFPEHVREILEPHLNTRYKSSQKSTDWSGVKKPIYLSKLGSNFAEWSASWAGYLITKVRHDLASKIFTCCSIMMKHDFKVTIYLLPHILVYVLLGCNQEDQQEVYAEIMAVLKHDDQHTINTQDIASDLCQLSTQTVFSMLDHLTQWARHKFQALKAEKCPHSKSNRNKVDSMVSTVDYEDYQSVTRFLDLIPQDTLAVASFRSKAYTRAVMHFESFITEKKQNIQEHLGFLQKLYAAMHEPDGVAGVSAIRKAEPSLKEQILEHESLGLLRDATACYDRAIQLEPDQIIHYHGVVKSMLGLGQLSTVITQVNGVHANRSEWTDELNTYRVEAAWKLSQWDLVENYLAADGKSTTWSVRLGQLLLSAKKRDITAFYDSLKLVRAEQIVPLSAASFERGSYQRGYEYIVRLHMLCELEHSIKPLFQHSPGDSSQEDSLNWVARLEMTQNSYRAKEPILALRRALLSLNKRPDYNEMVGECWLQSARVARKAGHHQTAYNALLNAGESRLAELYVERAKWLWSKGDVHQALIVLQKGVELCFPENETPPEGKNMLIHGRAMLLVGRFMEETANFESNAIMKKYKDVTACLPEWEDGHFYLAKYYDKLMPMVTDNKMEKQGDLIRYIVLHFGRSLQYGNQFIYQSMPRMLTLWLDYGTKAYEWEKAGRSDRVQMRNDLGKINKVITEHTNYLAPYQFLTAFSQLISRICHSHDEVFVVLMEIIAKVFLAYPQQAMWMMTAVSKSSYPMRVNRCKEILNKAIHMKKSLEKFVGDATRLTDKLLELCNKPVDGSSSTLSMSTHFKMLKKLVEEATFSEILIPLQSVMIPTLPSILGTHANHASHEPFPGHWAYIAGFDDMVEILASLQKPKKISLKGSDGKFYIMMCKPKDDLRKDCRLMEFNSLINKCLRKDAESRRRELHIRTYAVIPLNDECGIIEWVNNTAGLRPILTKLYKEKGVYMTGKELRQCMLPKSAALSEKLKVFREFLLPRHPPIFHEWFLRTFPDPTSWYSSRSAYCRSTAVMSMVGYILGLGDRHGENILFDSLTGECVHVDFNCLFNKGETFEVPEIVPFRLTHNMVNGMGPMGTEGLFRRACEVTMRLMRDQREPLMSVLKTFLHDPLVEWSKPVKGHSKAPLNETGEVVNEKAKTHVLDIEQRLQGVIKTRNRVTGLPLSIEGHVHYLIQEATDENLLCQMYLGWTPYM
Property: pKi
Reminder that pKi is minus the log10 of a molar concentration.

IN: Recorded pKi of CC(C)S(=O)(=O)c1ccc(-c2cnc(N)c(C3CC(c4ccccc4)=NO3)n2)cc1 (stereo not shown) , please.
OUT: 7.80
